target: KRas G12V (Homo sapiens, UniProt P01116, G12V); construct: Biotinylated KRas G12V (aa 1-169) loaded with GDP nucleotide; biotin (biotinylated); assay: SOS1-Catalyzed Nucleotide Exchange Assay, KRas G12V (Method 1); assay type: biochemical; conditions: 5 nM KRas G12V (aa 1-169, GDP-loaded), 50 nM SOS1
Sequence (P01116 1-169 G12V): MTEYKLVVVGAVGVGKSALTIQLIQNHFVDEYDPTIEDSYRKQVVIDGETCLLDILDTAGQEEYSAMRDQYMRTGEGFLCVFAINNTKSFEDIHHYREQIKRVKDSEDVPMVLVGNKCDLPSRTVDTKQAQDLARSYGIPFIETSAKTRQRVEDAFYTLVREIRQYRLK
quantity.name: IC50

Consider the following illustrative entries.
# compound, tested.target, IC50
records = [
    ("O=C1CCCCc2c(Cl)cc(O)cc2-c2ncc3c(nc(OC[C@@]45CCCN4C[C@H](F)C5)nc3c2F)N2CCCC(O)(CCN1)C2 (stereo partly drawn) [Compound 140a]", "KRas G12V (Homo sapiens, UniProt P01116, G12V)", "≤ 100 nM"),
    ("Oc1cc(Cl)c2c(c1)-c1ncc3c(nc(OC[C@@]45CCCN4C[C@H](F)C5)nc3c1F)N1CCCC(Cc3noc(n3)CCCCCC2)C1 (stereo partly drawn) [Compound 153a]", "KRas G12V (Homo sapiens, UniProt P01116, G12V)", "100 to 1000 nM"),
]

Turning now to a further record.
Report value only: IC50, KRas G12V (Homo sapiens, UniProt P01116, G12V), O=C1CCCCc2c(Cl)cc(O)cc2-c2ncc3c(nc(OC[C@@]45CCCN4C[C@H](F)C5)nc3c2F)N2CCCC(CCN1)C2 (stereo partly drawn) [Compound 115a] ≤ 100 nM

====

target: KRas G12V (Homo sapiens, UniProt P01116, G12V); construct: Biotinylated KRas G12V (aa 1-169) loaded with GDP nucleotide; biotin (biotinylated); assay: SOS1-Catalyzed Nucleotide Exchange Assay, KRas G12V (Method 2); assay type: biochemical; conditions: Method 2, A; 5 nM KRas G12V (aa 1-169, GDP-loaded), 50 nM SOS1; read-out: KRas G12V IC50 (nM) (Method 2, A)
// values below are reported IC50

Consider the following illustrative entries.
# molecule, IC50
data = [
    ("Nc1cc(Cl)c2c(c1)-c1ncc3c(nc(OC[C@@]45CCCN4C[C@H](F)C5)nc3c1F)N1CCCC(O)(CCNC(=O)CCCC2)C1 (stereo partly drawn) [Compound 156a]", "≤ 100 nM"),
    ("O=C1CCCc2c(F)ccc3cccc(c23)-c2ccc3c(nc(OC[C@@]45CCCN4C[C@H](F)C5)nc3c2F)N2CCCC(CCN1)C2 (stereo partly drawn) [Compound 191a]", "100 to 1000 nM"),
    ("Nc1cc2c3c(c(F)ccc3c1)CCCC(=O)NCCC1CCCN(C1)c1nc(OC[C@@]34CCCN3C[C@H](F)C4)nc3c(F)c-2ncc13 (stereo partly drawn) [Compound 189a]", "100 to 1000 nM"),
    ("Nc1cc2c(cc1F)CCCCC(=O)NCCC1CCCN(C1)c1nc(OC[C@@]34CCCN3C[C@H](F)C4)nc3c(F)c-2ncc13 (stereo partly drawn) [Compound 159a]", "1000 to 10000 nM"),
    ("Nc1cc2c(cc1F)CCCCC(=O)NCCC1(O)CCCN(C1)c1nc(OC[C@@]34CCCN3C[C@H](F)C4)nc3c(F)c-2ncc13 (stereo partly drawn) [Compound 161a]", "1000 to 10000 nM"),
]

Turning now to a further record.
Report value only: IC50, KRas G12V (Homo sapiens, UniProt P01116, G12V), Nc1ccc2c(c1)-c1ncc3c(nc(OC[C@@]45CCCN4C[C@H](F)C5)nc3c1F)N1CCCC(O)(CCNC(=O)CCCC2)C1 (stereo partly drawn) [Compound 157a] 1000 to 10000 nM
